List of CRF1R EC50 values.
Target: corticotropin releasing factor 1 receptor
Assay: cell-based or functional assay
Ends that are not written are not given here.
Hi! Could you send only the number? It should be in µM, unit omitted.

Please review the entries below; each comes with its answer.
{"Binder": "SQEPPISLDLPTHLLREVLEMTKADQLAQQAHSNRKLLDIA-NH2 [SEQ ID NO 99]", "Property name": "CRF1R EC50", "Reported measurement": 0.1}
{"Binder": "ZGPPISIDVPFQLLRILIEIEKQEKEKQQATTNARILARV (C-terminal amide) [SEQ ID NO 171]", "Property name": "CRF1R EC50", "Reported measurement": 0.206}

What does the data say about its CRF1R EC50? Entry: ZGPPISIDLPIQLLRKMIEIEKQEKEKQQATTNARILARV (C-terminal amide) [SEQ ID NO 150]
1
